Assign viability, T/C to each entry below.
System: 996289-038-R-J1-PDC spheroid viability;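 further: luminescence used as a proxy for viable cell amount; spheroids exposed to compounds for seven days before viability read; percent viability relative to DMSO vehicle control as 100%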
Procedure Summary: Anticancer human tumor 996289-038-R-J1-PDC patient-derived colon adenocarcinoma cell line growth inhibition [PI3K]
Condition Parameters: second compound 1 µM; first compound 10 µM; hits give low values; spheroids with HUVEC and MSC

{"Molecule": "CCCS(=O)(=O)Nc1ccc(F)c(C(=O)c2c[nH]c3ncc(-c4ccc(Cl)cc4)cc23)c1F + CC(Nc1ncnc2nc[nH]c12)c1cc2cccc(Cl)c2c(=O)n1-c1ccccc1", "Measured Result": "23.2%"}
{"Molecule": "Cn1nccc1Nc1nccc(-c2ccn(C(CO)c3ccc(Cl)c(F)c3)c(=O)c2)n1 (stereo not given) + CC(Nc1ccc2c(c1)OCCn1cc(N3C(=O)OCC3C(F)F)nc1-2)C(N)=O", "Measured Result": "30.2%"}
{"Molecule": "CC1(C)CCC(Nc2ncc(C(F)(F)F)c(-c3c[nH]c4c(P(C)(C)=O)c(C#N)ccc34)n2)CN1 (stereo not given) + Cc1nc(NC(=O)N2CCCC2C(N)=O)sc1-c1ccnc(C(C)(C)C(F)(F)F)c1", "Measured Result": "21.4%"}
{"Molecule": "C#Cc1c(F)ccc2cc(O)cc(-c3ncc4c(N5CC6CCC(C5)N6)nc(OCC56CCCN5CC(F)C6)nc4c3F)c12 (stereo not given) + CC(Nc1ccc2c(c1)OCCn1cc(N3C(=O)OCC3C(F)F)nc1-2)C(N)=O", "Measured Result": "17.9%"}

Could you now consider this next molecule?
Q) Looking for the measured viability, T/C of CC(C)NCC(C(=O)N1CCN(c2ncnc3c2C(C)CC3O)CC1)c1ccc(Cl)cc1 (stereo not given) + COc1c(OCCCN2CCOCC2)ccc2c3n(c(=NC(=O)c4cnc(N)nc4)nc12)CCN3 , can you help?
A) 15.3%

FYI, the data here is from PubChem BioAssay AID1963965.
